- System under test: HLA-A*02 (Homo sapiens, UniProt P04439, D140Y/D185E/D98H/E176V/E277Q/G131W/G231S/I119V/I121R/I166T/I218V/N151K/N90K/P208A/P217A/Q86G/Q94H/R138H/R169H)
- Method notes: UV-ligand exchange / peptide binding to MHC class I (beta2m ELISA)
- Condition label: Table 10A; peptide exchange yield, UV-ligand exchange, β2m ELISA
Measure name: Peptide exchange (MHC class I binding score)

Some entries whose results are on file:
{"Substance": "12 (FLAELAYDL; listed as Homo sapiens) [compound 12]", "Reported value": "++++ (>=75% = ++++)"}
{"Substance": "5 (ALVEQGFTV; listed as Homo sapiens) [compound 5]", "Reported value": "++++ (>=75% = ++++)"}
{"Substance": "6 (KLSPTVVGL; listed as Homo sapiens) [compound 6]", "Reported value": "+++ (50%-75% = +++)"}
{"Substance": "10 (SLLEEFDFHV; listed as Homo sapiens) [compound 10]", "Reported value": "++++ (>=75% = ++++)"}
{"Substance": "230 (VLTEFTREV; listed as Homo sapiens) [compound 230]", "Reported value": "++++ (>=75% = ++++)"}

-- ask Retrieve Peptide exchange (MHC class I binding score) measured for 224 (ALASVIKEL; listed as Homo sapiens) [compound 224] and print it.
-- reply ++++ (>=75% = ++++)

-- ask // fetch Peptide exchange (MHC class I binding score) given entry 15 (LLYGHTVTV; listed as Homo sapiens) [compound 15]
-- reply ++++ (>=75% = ++++)

-- ask Complete the entry with Peptide exchange (MHC class I binding score) for 304 (SLIDQFFGV; listed as Homo sapiens) [compound 304]
-- reply ++++ (>=75% = ++++)

-- ask Read the entry 11 (SLSQELVGV; listed as Homo sapiens) [compound 11] and write its reported Peptide exchange (MHC class I binding score).
-- reply +++ (50%-75% = +++)
